Assay: growth modulation of vineyard yeast isolate – strain RM11-1a, OD600, basal, 24 h, primary screen (AID 1177);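 also: cultures grown under basal conditions with no added stressor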
Conditions: S. cerevisiae RM11-1a growth, OD600, 24 h; higher = more signal, called active from +8 up or from −8 down
# z-score annotations
Please state the value as a number alone, without comment.

Past entries and their recorded results:
1. COCCCNC(=O)[C@@]1(CCC(=O)OC(C)(C)C)N=C(c2ccc(OCCCO)cc2)O[C@H]1c1ccccc1N=[N+]=[N-] : 0.252
2. O=C1[C@H]2C=C(I)[C@H](C[C@@H]2OCCOCCO)[C@@]12CO2 : -0.145
3. COCCOC(=O)N1C(=O)[C@@]2(c3cc(C#CC4(O)CCCCCC4)ccc31)[C@H](c1ccc(O)cc1)N1[C@H](c3ccccc3)[C@H](c3ccccc3)OC(=O)[C@H]1[C@@H]2C(=O)N1CCN(c2ncccn2)CC1 : 0.326
4. [N-]=[N+]=NCc1ccccc1[C@@H]1OC(c2ccc(OCCCO)cc2)=N[C@]1(CCS(=O)(=O)c1ccccc1)C(=O)O : 0.275
5. CCOc1cc(C(O)C2C=CC3C(=O)NC(=O)C3N2Nc2ccc(Cl)cc2Cl)ccc1O (centres undefined) : 0.358
6. Cc1ccc(S[C@]2(C(=O)NCc3ccccc3)CC(=O)N(C3CCCCC3)[C@@H]2c2ccc(CO)cc2I)cc1 : -0.505
7. COc1cc(NN2C(C(O)c3cc(OC)c(OC)c(OC)c3)C=CC3C(=O)N(C)C(=O)C32)cc(OC)c1OC (centres undefined) : 0.276
8. COCCOC(=O)N1C(=O)[C@@]2(c3ccccc31)[C@H](C(=O)NC[C@H](O)c1ccccc1)[C@H]1C(=O)O[C@H](c3ccccc3)[C@H](c3ccccc3)N1[C@@H]2c1ccc(O)cc1 : 1.64

Ask | Sample CC(C)NC(=O)[C@@]1(c2ccc([N+](=O)[O-])cc2)CC(=O)N(C2CCCCC2)[C@@H]1c1ccc(CO)cc1 — what was its z-score?
Reply | 0.852

Ask | I am curious: what z-score value has been reported for COc1cc(OC)c(C(O)C2C=CC3C(=O)N(Cc4ccccc4)C(=O)C3N2n2cnnc2)cc1Br (centres undefined) ?
Reply | -3.92

Ask | What measured z-score goes with COC(=O)[C@@H]1N=C(c2ccc(OCCCO)cc2)O[C@@H]1c1ccccc1 ?
Reply | -0.763

====

Experiment: optical density shifts of acrAB sulA E. coli – strain DRC41, OD650, 48 h, E. coli filamentation inducer project, primary screen (AID 1152);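 also: E. coli MC1000 strain DRC41 lacking acrAB efflux pump and sulA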
Settings: higher = more signal, called active from +8 up or from −8 down
Activity calls are given as the source filed them.
z-score overview

1) O=C1NC(=O)C2C1C=CC(C(O)c1ccco1)N2Nc1ccc(Cl)cc1Cl (centres undefined) : -2.27 (inactive)
2) O=C1[C@H]2C=C(I)[C@H](C[C@@H]2OCCOCCO)[C@@]12CO2 : -0.878 (inactive)
3) COC(=O)[C@@]1(Cc2ccc(F)cc2)[C@H]2c3cc(C(=O)N4CCCC4)n(CCc4c[nH]c5ccccc45)c3C[C@H]2CN1C(=O)c1ccccc1 : -2.35 (inactive)

# context switch: different compound, same z-score
Ask | Bench note: what z-score did CCCCCCCCCC(O)C1C=CC2C(=O)N(c3ccccc3)C(=O)C2N1Nc1cc(OC)c(OC)c(OC)c1 (centres undefined) show?
Reply | -3.95 (inactive)

====

Test: probe aLAP1 signal on lysate-treated microarray – cell lysate, small-molecule microarray, COS7 lysate, primary screen (AID 1124);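 also: lysate comes from COS7 cells expressing LAP1 and is applied at 0.3 µg/mL; score merges spot fluorescence near 667 nm with signal-to-noise over triplicate slides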
Conditions: probe aLAP1, fluorescence, higher = more signal
readoutLabel: composite z-score

Use these answered entries as a reference point.
1) [N-]=[N+]=Nc1ccccc1[C@H]1OC(c2ccc(OCCCO)cc2)=N[C@@]1(Cc1ccccc1)C(=O)NCCN1CCOCC1 : 0.634
2) CCOC(=O)C[C@H]1[C@H](OC(=O)c2ccccc2-c2ccccc2)[C@@H](NC(=O)c2ccc3ccccc3c2)c2cc(OCCCO)ccc2N1C(=O)c1ccccc1 : -0.0843

Now look at this one.
Ask | # query: composite z-score of entry C=CCNC(=O)[C@@H]1[C@H]2C(=O)O[C@H](c3ccccc3)[C@H](c3ccccc3)N2[C@H](c2ccc(OCCO)cc2)[C@@]12C(=O)N(C(=O)OCCOC)c1ccc(C#Cc3ccc(OC)cc3)cc12
Reply | 0.78

====

composite z-score listing for selected compounds.
Target: Carbonic anhydrase 2 (Homo sapiens)
Experiment: compounds binding carbonic anhydrase 2 – biochemical, small-molecule microarray, Alexa647-labelled CAII, profiling panel (AID 1122)
Details: CAII-A647 binding fluorescence, higher = more signal
Reply: number alone, nothing else.

Examples from the recorded data:
1) CCCCC(=C=CC[C@H](O)c1ccc(OCCO)cc1)CCO : 0.694
2) C=C(COC)/C(=C/C[C@H](OC(=O)c1ccncc1)c1ccccc1OCCO)c1cc(C(=O)OC)ccc1OC : 0.752
3) NC(=O)[C@H]1[C@@H]2C(=O)O[C@@H](c3ccccc3)[C@@H](c3ccccc3)N2[C@@H](c2ccc(OCCO)cc2)[C@]12C(=O)Nc1ccc(C#CCCO)cc12 : 0.537

// switching to the query compound
Ask | # input compound: COc1cc(NN2C(C(O)c3ccc(N(C)C)cc3)C=CC3C(=O)N(c4ccccc4)C(=O)C32)cc(OC)c1OC (centres undefined) ; wanted: its composite z-score
Reply | 0.192

====

Test system: XIP peptide (Xip251-270) binding
Assay: XIP fragment 251-270 binding compounds – biochemical, small-molecule microarray, fluorescence 635/667 nm, 0.1 µg/mL protein, primary screen (AID 1182)
Settings: fluorescent protein binding, 635 nm, higher = more signal, called active from +8 up or from −8 down
Decision: composite z-score >= 0.4 yields rule met, all other cases yield rule not met.

Some entries whose results are on file:
1) CC(C)(C)OC(=O)COc1cccc(C(=O)CCN2CCOCC2)c1 : rule not met
2) COc1cc(NN2C(C(O)c3cc(OC)c(OC)c(OC)c3)C=CC3C(=O)N(C)C(=O)C32)cc(OC)c1OC (stereo unspecified) : rule not met
3) NCCCCCCNC(=O)[C@@H]1C[C@@H]2C(=O)N[C@@H](CCCCN)C(=O)N2[C@@H]1c1ccc(O)cc1 : rule met
4) C=CC[C@@]1(C(=O)NCCCOC)N=C(c2ccc(OCCCO)cc2)O[C@@H]1c1ccccc1N=[N+]=[N-] : rule not met

Ask | Reported composite z-score reaches at least 0.4 for C=CCC(OC(C)=O)[C@@H]1[C@@H](N(Cc2cccc3ccccc23)C(=O)Cc2ccc(F)cc2)c2cc(OCCCO)ccc2N1C(=O)c1ccc2ccccc2c1 (stereo partly specified) ?
Reply | rule not met

Ask | Exam item: decide whether the reported composite z-score for [N-]=[N+]=NCc1ccccc1[C@@H]1OC(c2ccc(OCCCO)cc2)=N[C@]1(CCS(=O)(=O)c1ccccc1)C(=O)O is at least 0.4.
Reply | rule met

Ask | Assess whether reported composite z-score for COc1ccc([C@H]2OC[C@@H]3C[C@H](Cc4ccccc4)C(=O)N32)cc1 sits at 0.4 or higher.
Reply | rule not met

====

Test: growth effects on S. cerevisiae YJM789 – YJM789 clinical isolate, OD600, 24 h, basal, primary screen (AID 1089);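 also: growth of clinical yeast isolate S. cerevisiae YJM 789 seeded 1000 cells per well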
Conditions: higher = more signal, called active from +8 up or from −8 down
Item-by-item account of z-score
Give the figure by itself; no unit, no explanation.

1. Cc1ccc(S[C@]2(C(=O)NCC(F)(F)F)CC(=O)N(Cc3cc(C(F)(F)F)cc(C(F)(F)F)c3)[C@@H]2c2ccc(CO)cc2I)cc1 : -2.58

Ask | Query: z-score; subject: C=CCN1C(=O)[C@]2(CCS(=O)(=O)c3ccccc3)N=C(c3ccc(OCCCO)cc3)O[C@@H]2c2ccccc21
Reply | -0.523

Ask | Form field: reported z-score of NC(=O)[C@@]1(Cc2ccccc2)COC(c2ccc(OCCCO)cc2)=N1
Reply | 1.2

====

Target: Torsin-1A-interacting protein 2 (Homo sapiens)
Assay: small molecules binding lysate-expressed LULL1 – cell lysate, human LULL1 lysate, 635/667 nm fluorescence, primary screen (AID 1092);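 also: probe is lysate of COS7 cells overexpressing human LULL1; score merges per-feature 667 nm fluorescence with signal-to-noise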
Details: small-molecule microarray, hLULL1 lysate binding, 635 nm fluorescence; higher = more signal
Quick list: composite z-score per entry.

1. C=CCC(OC(C)=O)[C@@H]1[C@@H](N(Cc2cccc3ccccc23)C(=O)Cc2ccc(OC)cc2)c2cc(OCCCO)ccc2N1C(=O)c1ccc(-c2ccccc2)cc1 (stereo partly drawn) : 1.1
2. COc1cc(NN2C(C(O)c3ccc(N(C)C)cc3)C=CC3C(=O)N(c4ccccc4)C(=O)C32)cc(OC)c1OC (stereo not drawn) : 1.4

Ask | Could you share which composite z-score value was measured for COc1ccc([Si](C)(C)[C@@H]2[C@@H](CCO)O[C@]3(C(=O)N(Cc4cccc(NC(=O)[C@H](C)O)c4)c4ccccc43)[C@H]2C)cc1 ?
Reply | 2.84

Ask | Reported composite z-score for CCCCC(CC)C(O)C1C=CC2C(=O)N(c3ccccc3)C(=O)C2N1Nc1ccccc1F (stereo not drawn) : what is it?
Reply | 2.64

Ask | Give its composite z-score value. Item: COC(=O)C1=CC(CCCO)=CC(c2cccs2)N(C)C=C1C(=O)OC (stereo not drawn)
Reply | 1.6

Ask | Need composite z-score of CC(C)NC(=O)[C@@]1(C)c2ccccc2C(=O)N(Cc2ccc(OC(F)(F)F)cc2)[C@H]1c1ccc(CO)cc1 , thanks.
Reply | 2.32

Ask | Data request, read-out composite z-score, for C=CCNC(=O)[C@H]1[C@@H]2C(=O)O[C@@H](c3ccccc3)[C@@H](c3ccccc3)N2[C@@H](c2ccccc2OCCO)[C@]12C(=O)N(C(=O)OCCOC)c1ccc(C#CC3(O)CCCCCC3)cc12
Reply | 3.1

Ask | Sample COC(=O)[C@@]1(Cc2ccc(OC)cc2)[C@H]2c3cc(C(=O)N4CCCC4)n(CCc4c[nH]c5ccc(O)cc45)c3C[C@H]2CN1C(=O)c1ccccc1 — what was its composite z-score?
Reply | 3.16

Ask | What value of composite z-score has been recorded for this entry: O=C1NC(=O)C2C1C=CC(C(O)c1ccco1)N2Nc1ccc(Cl)cc1Cl (stereo not drawn)
Reply | 1.72
